Values compiled from PubChem BioAssay AID1159580.

Assay: chemical genetic growth profiling, strain panel (AID 1159580);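 note: tested at 20 µM; growth read once vehicle control cultures reached saturation at 30 °C; 1 = growth at the plate median or of vehicle wells; lower values mean less growth of the strain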
Details: S. cerevisiae deletion strains, growth OD, locus YKR091W, strain srl3, active compounds read low
Among all 5,500 compounds or so, about 2,000 (36%) were called active. About 18% were inconclusive and are not listed. The list shows a part of the results.
The following compounds are shown together with reported normalized growth values.

Compound	Observation type	Endpoint value
COc1cccc2c1CCC1CC(=O)CCC21C (configuration not stated)	normalized growth	0.988 (inactive)

Summary for this compound, COc1ccc(C(=O)c2ccccc2)c(O)c1 : normalized growth is 0.874 (active)

Summary for this compound, CC(C)CC1C(=O)N2CCC[C@H]2C2(O)O[C@](NC(=O)C3C=C4c5cccc6[nH]c(Br)c(c56)C[C@H]4N(C)C3)(C(C)C)C(=O)N12 (some centres not stated) : normalized growth is 0.979 (inactive)

Summary for this compound, CCC1(c2ccccc2)C(=O)NCNC1=O : normalized growth is 0.999 (inactive)

Summary for this compound, CCCCCC(C)N (configuration not stated) : normalized growth is 1.02 (inactive)

Summary for this compound, O=C(/C=C/C=C/c1ccc2c(c1)OCO2)N1CCCCC1 : normalized growth is 0.977 (inactive)

Summary for this compound, CC1(C)C2CC[C@]3(C)C(C(=O)C=C4[C@@H]5C[C@@](C)(C(=O)O)CC[C@]5(C)CC[C@]43C)[C@@]2(C)CC[C@@H]1OC(=O)CCC(=O)O (some centres not stated) : normalized growth is 0.989 (inactive)

Summary for this compound, COc1ccc2c(c1)C1(C)CCC(=O)CC1CC2 (configuration not stated) : normalized growth is 1.01 (inactive)

Summary for this compound, COc1ccc2c(c1)[C@@]1(C)CCC(=O)C[C@H]1CC2 : normalized growth is 0.968 (inactive)

Summary for this compound, CC1(C)C2CC[C@]3(C)C(C(=O)C=C4[C@H]5C[C@@](C)(C(=O)O)CC[C@]5(C)CC[C@]43C)[C@@]2(C)CC[C@@H]1O (some centres not stated) : normalized growth is 1.01 (inactive)

Summary for this compound, COc1cc(O)c2c(=O)cc(C)oc2c1CC=C(C)C : normalized growth is 0.978 (inactive)

Summary for this compound, Cc1cc(C(C)(C)CC(C)(C)C)ccc1OCCOCC[N+](C)(C)Cc1ccccc1 : normalized growth is 0.0576 (active)

Summary for this compound, COc1ccc(C(=O)c2ccccc2O)c(O)c1 : normalized growth is 0.901 (active)

Summary for this compound, CC(C)(C)CC(C)(C)c1ccc(OCCOCC[N+](C)(C)Cc2ccccc2)cc1 : normalized growth is 0.0677 (active)

Summary for this compound, C[C@@H](N)CO : normalized growth is 0.977 (inactive)

Summary for this compound, CC(=O)CC(=O)CCC(=O)O : normalized growth is 1.02 (inactive)
